measurement_target: hTLR8 (Homo sapiens, UniProt Q9NR97)
Sequence (Q9NR97 27-1041): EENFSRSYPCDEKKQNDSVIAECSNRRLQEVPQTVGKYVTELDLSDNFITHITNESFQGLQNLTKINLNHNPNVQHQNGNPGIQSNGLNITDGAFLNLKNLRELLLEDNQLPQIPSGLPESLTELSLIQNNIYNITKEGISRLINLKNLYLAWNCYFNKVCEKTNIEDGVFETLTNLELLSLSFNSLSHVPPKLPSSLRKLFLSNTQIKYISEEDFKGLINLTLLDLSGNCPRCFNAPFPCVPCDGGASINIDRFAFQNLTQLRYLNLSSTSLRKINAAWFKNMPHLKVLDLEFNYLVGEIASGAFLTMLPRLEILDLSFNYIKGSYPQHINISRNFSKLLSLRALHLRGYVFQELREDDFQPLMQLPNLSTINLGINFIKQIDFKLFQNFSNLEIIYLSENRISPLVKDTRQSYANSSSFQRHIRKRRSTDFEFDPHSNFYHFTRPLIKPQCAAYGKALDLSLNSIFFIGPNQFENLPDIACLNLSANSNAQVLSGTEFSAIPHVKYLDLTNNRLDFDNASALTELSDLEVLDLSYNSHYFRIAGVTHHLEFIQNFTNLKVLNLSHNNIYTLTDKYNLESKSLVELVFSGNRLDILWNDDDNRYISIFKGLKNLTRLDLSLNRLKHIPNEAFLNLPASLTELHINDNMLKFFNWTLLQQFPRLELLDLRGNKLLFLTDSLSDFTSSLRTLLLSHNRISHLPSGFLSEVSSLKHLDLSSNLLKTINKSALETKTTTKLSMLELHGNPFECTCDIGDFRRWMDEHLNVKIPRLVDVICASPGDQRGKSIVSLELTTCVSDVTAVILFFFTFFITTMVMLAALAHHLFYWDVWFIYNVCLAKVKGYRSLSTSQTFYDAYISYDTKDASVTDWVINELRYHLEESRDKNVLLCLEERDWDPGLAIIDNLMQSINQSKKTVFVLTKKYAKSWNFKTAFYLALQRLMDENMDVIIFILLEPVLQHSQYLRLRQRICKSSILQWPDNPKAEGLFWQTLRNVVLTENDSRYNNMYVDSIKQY
experiment: Human TLR8 Reporter Assay
conditions: HEK-Blue hTLR8 cells, 16 hours, normalized to tl8-506 (1 μM) and DMSO
quantity: EC50 (µM)

Worked cases, EC50 given:
* CCCCNc1nc(N)nc2cn(Cc3c(OC)ccc(N)c3OC)nc12 | 1.53
* CCCCNc1nc(N)nc2cn(Cc3ncc(N4CCNCC4)cc3OC)nc12 | 1.38
* CCCCNc1nc(N)nc2cn(Cc3ccc(C(C)NC)cc3OC)nc12 (stereo not drawn) [Compound 194] | 0.137
* CCCCNc1nc(N)nc2cn(Cc3ccc(C(C)N(C)CCC)cc3OC)nc12 (stereo not drawn) [Compound 240] | 1.09
* CCCCNc1nc(N)nc2cn(Cc3ccc(C(C)NCCC)cc3OC)nc12 (stereo not drawn) [Compound 216] | 0.119
* C=CCN(C)Cc1cnc(Cn2cc3nc(N)nc(NCCCC)c3n2)c(OC)c1 | 0.37
* CCCCNc1nc(N)nc2cn(Cc3ccc(C4CCCN4)cc3OC)nc12 (stereo not drawn) [Compound 236] | 2.87
* CCCCNc1nc(N)nc2cn(Cc3ccc(C4CCC(=O)N4)cc3)nc12 (stereo not drawn) [Compound 201] | 3.26

I = CCCCNc1nc(N)nc2cn(CCCCN)nc12
II = C=CCN(C)Cc1cc(OC)c(Cn2cc3nc(N)nc(N[C@@H](C)CCC)c3n2)c(OC)c1
III = CCC[C@@H](CO)Nc1nc(N)nc2cn(Cc3c(OC)cc(CN)cc3OC)nc12
# ascending order, key=EC50 Enter labels, ranked according to the request.
III, II, I
(III: 0.122 µM, II: 0.38 µM, I: 2.98 µM)

a = CCCCNc1nc(N)nc2cn(Cc3c(OC)cc(CN4CCN(C(=O)C5CCC(CN6C(=O)CC(SC[C@H](N)C(=O)O)C6=O)CC5)CC4)cc3OC)nc12 (stereo partly drawn)
b = CCCCNc1nc(N)nc2cn(Cc3c(C)cccc3OC)nc12
c = CCCCNc1nc(N)nc2cn(Cc3nc(Br)oc3C)nc12
d = CCCCNc1nc(N)nc2cn(Cc3c(OC)ccc(CN4CCN(C(=O)C5CCC(CN6C(=O)CC(SC[C@H](N)C(=O)O)C6=O)CC5)CC4)c3OC)nc12 (stereo partly drawn)
# ascending order, key=EC50 Enter labels, ranked according to the request.
b, c, d, a
(b: 0.748 µM, c: 8.3 µM, d: 15.1 µM, a: 24.6 µM)

====

measurement_target: hTLR7 (Homo sapiens)
Sequence (Q9NYK1 27-1049): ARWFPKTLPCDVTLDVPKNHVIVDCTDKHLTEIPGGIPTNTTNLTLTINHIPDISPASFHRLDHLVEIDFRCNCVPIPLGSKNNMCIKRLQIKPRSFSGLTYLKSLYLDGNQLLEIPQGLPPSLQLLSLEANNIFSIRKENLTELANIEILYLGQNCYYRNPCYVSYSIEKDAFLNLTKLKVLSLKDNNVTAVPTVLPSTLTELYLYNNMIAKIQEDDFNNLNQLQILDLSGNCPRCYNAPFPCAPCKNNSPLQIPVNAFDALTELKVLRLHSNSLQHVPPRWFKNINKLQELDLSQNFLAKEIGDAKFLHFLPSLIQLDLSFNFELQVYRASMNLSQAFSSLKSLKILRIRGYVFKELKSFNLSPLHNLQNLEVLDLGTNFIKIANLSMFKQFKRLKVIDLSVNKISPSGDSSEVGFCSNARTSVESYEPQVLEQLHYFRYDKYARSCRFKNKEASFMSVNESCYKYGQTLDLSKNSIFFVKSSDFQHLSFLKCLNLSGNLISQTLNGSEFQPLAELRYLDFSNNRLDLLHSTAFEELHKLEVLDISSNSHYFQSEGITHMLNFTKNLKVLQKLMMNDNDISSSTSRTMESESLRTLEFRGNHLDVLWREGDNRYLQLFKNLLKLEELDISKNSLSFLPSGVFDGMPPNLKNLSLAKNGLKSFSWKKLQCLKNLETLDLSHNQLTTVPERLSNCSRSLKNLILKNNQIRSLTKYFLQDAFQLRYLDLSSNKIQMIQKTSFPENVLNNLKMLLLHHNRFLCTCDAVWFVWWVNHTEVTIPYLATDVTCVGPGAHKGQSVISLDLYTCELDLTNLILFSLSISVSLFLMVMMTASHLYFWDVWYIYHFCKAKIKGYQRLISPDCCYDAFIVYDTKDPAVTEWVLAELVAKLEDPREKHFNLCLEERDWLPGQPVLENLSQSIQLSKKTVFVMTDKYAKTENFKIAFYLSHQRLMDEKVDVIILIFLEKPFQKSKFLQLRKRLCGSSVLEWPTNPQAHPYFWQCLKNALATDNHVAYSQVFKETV
experiment: Human TLR7 Reporter Assay
conditions: HEK-Blue hTLR7 cells, 16 hours, normalized to CL097 (6 μM) and DMSO
pEC50: −log10 of the molar value.
quantity: pEC50

Worked cases, pEC50 given:
* CCCCNc1nc(N)nc2cn(Cc3c(OC)ccc(CN4CCNCC4)c3OC)nc12 | 5.58
* CCCCNc1nc(N)nc2cn(Cc3ccc(CN4CCNCC4)cc3)nc12 | 5.80
* CCCCNc1nc(N)nc2cn(Cc3nc(N4CCNCC4)ccc3OC)nc12 | 5.94

I = CCCCNc1nc(N)nc2cn(Cc3c(OC)ccc(CN)c3OC)nc12
II = CCCCNc1nc(N)nc2cn(Cc3ccccn3)nc12
Sort I and II by pEC50 descending and give the first. Use the label to indicate which entry you chose.
II

P = CCC[C@@H](CO)Nc1nc(N)nc2cn(Cc3ccc(CN4CC(CN)C4)cc3OC)nc12
Q = CCCCNc1nc(N)nc2cn(Cc3c(OC)cc(C(C)NC)cc3OC)nc12 (centres unmarked) [Compound 209]
R = CCCCNc1nc(N)nc2cn(Cc3c(OC)cc(C(C)NC)cc3OC)nc12 (centres unmarked) [Compound 211]
S = CCCCNc1nc(N)nc2cn(Cc3ccc(N)cc3OC)nc12
Arrange these compounds by their pEC50, starting with the largest number. Enter labels, ranked according to the request.
S, Q, R, P

I = CCC[C@@H](CO)Nc1nc(N)nc2cn(Cc3c(OC)cc(CN)cc3OC)nc12
II = CCCCNc1nc(N)nc2cn(Cc3ccc(CN4C(=O)C=CC4=O)cc3OC)nc12
III = CCCCNc1nc(N)nc2cn(Cc3c(OC)cc(SC[C@H](N)C(=O)O)cc3OC)nc12
Arrange these compounds by their pEC50, starting with the largest number. Enter labels, ranked according to the request.
I, II, III
(I: 6.73, II: 6.53, III: 6.05)
